# Tested on: MS2 coat protein
# experimentalProtocol: apparent KD of MS2 coat protein; designed switch direction (-1 OFF switch, 1 ON switch): -1; higher = weaker reporter binding
# experimentalSetup: input ligand: FMN 200 uM
# reported apparent KD of MS2 coat protein; entries follow
Supply the numeric figure in nM, leaving out any unit text.

Here are 5 sequences together with their reported answers.
INSERT INTO assay_data (residuesequence, measvalue) VALUES
  ('UGCCUACGUGUGAGGAUAUCAAGGUUUCCACACUAUGAGAAGGUACAUGAGGAUCACCCAUGUUUAGAUGAGCC [Eternabot (L2) Solution 43] (Eterna round: R97, puzzle: Brourd''s mod of Exclusion 4)', 74.2),
  ('GCGGGCUUUUUGCUCGUUUACAUGAGGAUCACCCAUGUGUCUUCGCGCCCGGGCCCGGGCGGGCCCGGGCCCGGGCG [-52.3, -76.4, A 8%] (Eterna round: R97, puzzle: Sensor, turn-off variant 1)', 36.1),
  ('GGAUCUACUGAGGAUAUUACAUCACCCGACUGAUAAGAAGGCAGAACAUGAGGAUCACCCAUGUGGGUAGCCAC [Polaris5] (Eterna round: R97, puzzle: Exclusion 6)', 56.3),
  ('AUAGAGUUAGGAUAUGAGAGGCCGAACAUGAGGAUCACCCAUGUUCCGCGUGUUGCUCCCUUAGAAGGAACGAAUA [EX5 B.3] (Eterna round: R97, puzzle: Exclusion 5)', 14.7),
  ('CGCCAUCGAGUGAGGAUAUCAGGUAAAGGUGUACAUGAGAAGGCACUUGAGGAUCACCCAAGUAUUAAAGAAAA [Mareat] (Eterna round: R97, puzzle: Brourd''s mod of Exclusion 4)', 356);

Find the measured apparent KD of MS2 coat protein: item GUAUAACAUGAGGAUCACCCAUGUGAGGAUAUGCGAAUUUCAUCAAAAGAUGAAAUUUGCAGAAGGCACAGUAC [Omei Ex1 A12] (Eterna round: R97, puzzle: Exclusion 1) , target or system MS2 coat protein.
93

Same question for GACCUAUAGGUAGGAUAUCAUUGCGAUUAGCUAUGAGAAGGACCACAUGAGGAUCACCCAUGUCCUCCAAUUAGCCAUUUGGUC [Fiskers ExNg1 - 7] (Eterna round: R96, puzzle: Exclusion NG 1) please.
196

What do we get for AUAAGUAUAUAGGAUAUCUAGCUGGAAACAGCUAGAGAAGGAUGUACAUGAGGAUCACCCAUGUAAAUCUCAAU [Ex6/12-A3] (Eterna round: R97, puzzle: Exclusion 6) ?
16.3

What about AAAAAAUACAUGAGGAUCACCCAUGUAGAGUGGGAAGAGAGAUAGGAUAUGAUGUGAGAAUCAUAUCAGAAGGAUCGAGACUCA [AK ExNG3-2.2] (Eterna round: R96, puzzle: Exclusion NG 3) ?
143

Also check CAGCUGAAUGUGAGGAUAUUACGAGCGAUAGCUCGUGAGAAGGCACAUGAGGAUCACCCAUGUCUCAACAGCUG [BmEx4/2-B4] (Eterna round: R97, puzzle: Brourd's mod of Exclusion 4)
552
